target: Full length human CD40 (huCD40) on cells (human, UniProt P25942 21-277); assay: cell-based or functional assay
Sequence (P25942 21-277): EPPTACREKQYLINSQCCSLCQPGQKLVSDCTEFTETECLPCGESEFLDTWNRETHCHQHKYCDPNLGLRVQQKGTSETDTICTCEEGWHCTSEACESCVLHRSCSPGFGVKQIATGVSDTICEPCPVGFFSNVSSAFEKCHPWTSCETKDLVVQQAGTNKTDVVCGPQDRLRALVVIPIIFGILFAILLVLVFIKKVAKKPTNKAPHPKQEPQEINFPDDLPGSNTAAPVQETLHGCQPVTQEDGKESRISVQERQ
reported-property: B cells EC50, CD83 surface expression, with cross-linker (ng/mL)
Could you give me the number in ng/mL? Just the number is fine.

Please review the following examples before continuing.
C40M9 (antibody, human IgG1, lambda, V domains shown) VH: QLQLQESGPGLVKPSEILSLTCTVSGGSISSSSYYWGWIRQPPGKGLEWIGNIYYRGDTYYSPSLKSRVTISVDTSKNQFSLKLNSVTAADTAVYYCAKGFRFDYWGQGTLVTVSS VL: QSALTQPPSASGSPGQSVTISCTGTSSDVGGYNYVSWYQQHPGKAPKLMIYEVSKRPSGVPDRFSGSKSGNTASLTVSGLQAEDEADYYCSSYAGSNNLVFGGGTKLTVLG ... 0.00668
C40M18 (antibody, human IgG1, lambda, V domains shown, Full-length IgG1/lambda; from OmniRat (OMT); VH C40H48, VL C40L64) VH: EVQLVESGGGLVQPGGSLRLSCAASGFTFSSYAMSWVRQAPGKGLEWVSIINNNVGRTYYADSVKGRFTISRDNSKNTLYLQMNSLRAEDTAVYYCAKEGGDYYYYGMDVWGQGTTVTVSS VL: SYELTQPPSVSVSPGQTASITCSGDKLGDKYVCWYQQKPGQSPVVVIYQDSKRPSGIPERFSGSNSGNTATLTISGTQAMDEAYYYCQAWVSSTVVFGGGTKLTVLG ... 62.4
C40M67 (antibody, human IgG1, kappa, V domains shown, Full-length IgG1/kappa; from phage display) VH: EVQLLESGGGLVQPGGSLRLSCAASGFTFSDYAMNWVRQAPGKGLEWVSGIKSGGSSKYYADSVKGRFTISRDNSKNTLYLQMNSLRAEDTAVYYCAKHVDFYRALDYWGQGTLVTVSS VL: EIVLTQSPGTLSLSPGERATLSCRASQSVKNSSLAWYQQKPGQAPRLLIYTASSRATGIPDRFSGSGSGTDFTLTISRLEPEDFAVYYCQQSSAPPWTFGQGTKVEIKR ... 1.46

[ask] For the binder shown here, C40M12 (antibody, human IgG1, lambda, V domains shown, Full-length IgG1/lambda; from OmniRat (OMT)) VH: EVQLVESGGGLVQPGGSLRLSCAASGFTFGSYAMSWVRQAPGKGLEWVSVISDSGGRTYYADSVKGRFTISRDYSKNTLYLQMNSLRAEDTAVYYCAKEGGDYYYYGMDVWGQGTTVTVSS VL: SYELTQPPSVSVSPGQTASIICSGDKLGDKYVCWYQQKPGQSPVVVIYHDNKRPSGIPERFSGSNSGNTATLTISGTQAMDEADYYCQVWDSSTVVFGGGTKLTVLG , give the reported B cells EC50, CD83 surface expression, with cross-linker.
[reply] 2.84
